Exercise: state measured inhibition at 0.1 µM for each of the compounds provided.
assayedTarget: MLLT1 (Homo sapiens)
Construct: endogenous in cells; host or cells: MV4-11 (ATCC CRL-9591)
procedureText: MLLT1 degradation assay (JESS automated chemiluminescent detection) in MV4-11 cells
Format: cell-based
settings: 0.1 µM, 24h, with respect to DMSO control

CN1CCC[C@@H]1c1cc2cnc(NC(=O)c3ccc4c(C5CC5)nn(CCCCCCCC#Cc5cccc6c5CN(C5CCC(=O)NC5=O)C6=O)c4c3)cc2[nH]1 (stereo partly drawn)    ≥ 75%
Cc1nn(CCCCCC2CCN(c3cccc4c3C(=O)N(C3CCC(=O)NC3=O)C4=O)CC2)c2cc(C(=O)Nc3cc4[nH]c([C@H]5CCCN5C)cc4cn3)ccc12 (stereo partly drawn)    ≥ 75%

QUERY: Look at this compound and give its reported inhibition at 0.1 µM. Cc1nn(CCCCCOCC#Cc2cccc3c2CN(C2CCC(=O)NC2=O)C3=O)c2cc(C(=O)Nc3cc4[nH]c([C@H]5CCCN5C)cc4cn3)ccc12 (stereo partly drawn)
RESULT: ≥ 75%

---

assayedTarget: MLLT1 (Homo sapiens, UniProt Q03111)
Construct: endogenous in cells; host or cells: MV4-11 (ATCC CRL-9591)
Sequence (Q03111 1-559): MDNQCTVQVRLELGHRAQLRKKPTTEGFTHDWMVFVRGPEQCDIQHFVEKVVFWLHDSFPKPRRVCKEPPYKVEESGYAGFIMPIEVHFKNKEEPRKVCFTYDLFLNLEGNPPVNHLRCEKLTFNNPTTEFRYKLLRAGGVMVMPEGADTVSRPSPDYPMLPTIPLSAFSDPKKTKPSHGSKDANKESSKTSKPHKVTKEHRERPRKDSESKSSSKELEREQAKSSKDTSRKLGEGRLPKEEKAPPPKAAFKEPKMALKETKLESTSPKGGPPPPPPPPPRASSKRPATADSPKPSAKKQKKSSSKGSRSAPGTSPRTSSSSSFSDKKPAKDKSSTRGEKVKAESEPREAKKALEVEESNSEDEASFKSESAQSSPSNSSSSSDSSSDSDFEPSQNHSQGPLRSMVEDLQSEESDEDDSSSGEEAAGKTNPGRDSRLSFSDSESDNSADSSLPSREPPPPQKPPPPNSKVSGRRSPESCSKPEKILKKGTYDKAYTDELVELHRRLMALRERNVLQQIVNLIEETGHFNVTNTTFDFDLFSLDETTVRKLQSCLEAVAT
procedureText: MLLT1 degradation assay (JESS automated chemiluminescent detection) in MV4-11 cells
Format: cell-based
settings: 1 µM, 24h, with respect to DMSO control
measureName: inhibition at 1 µM

Example cases with answers are listed next.
Cc1nn(CCCCCCCC#Cc2ccc(F)c3c2CN(C2CCC(=O)NC2=O)C3=O)c2cc(C(=O)Nc3cc4[nH]c([C@H]5CCCN5C)c(Cl)c4cn3)ccc12 (stereo partly drawn) [Example 67]    ≥ 75%
Cc1nn(CCCCCCCC#Cc2ccc3c(c2)n(C)c(=O)n3C2CCC(=O)NC2=O)c2cc(C(=O)Nc3cc4[nH]c([C@H]5CCCN5C)cc4cn3)ccc12 (stereo partly drawn) [Example 39]    ≥ 75%

QUERY: // returns reported inhibition at 1 µM for input Cc1nn(CCCC2CCN(c3ccc(C(=O)NC4CCC(=O)NC4=O)cc3F)CC2)c2cc(C(=O)Nc3cc4[nH]c([C@H]5CCCN5C)cc4cn3)ccc12 (stereo partly drawn) [Example 28]
RESULT: 25 to 50%

---

assayedTarget: MLLT1 (Homo sapiens, UniProt Q03111)
Construct: endogenous in cells; host or cells: MV4-11 (ATCC CRL-9591)
procedureText: MLLT1 degradation assay (JESS automated chemiluminescent detection) in MV4-11 cells
Assay type: cell-based
settings: 1 µM, 24h, with respect to DMSO control
Procedure: MLLT1 degradation efficacy of compounds was tested in an automated chemiluminescent detection system (JESS, Cat# 004-650). MV4-11 (#CRL-9591, ATCC) cells were seeded at a density of 1.2 million cells/well in a non-treated 6-well cell culture plate in 2.4 mL of complete medium (IMDM + 10% FBS + 1X Penicillin-Streptomycin). […] Post run, data were analysed using "Compass for SW" software for chemiluminescent detection. […]
What inhibition at 1 µM was measured for each of the following?

CN1CCC[C@@H]1c1cc2cnc(NC(=O)c3ccc4cnn(CCCCCCCC#Cc5cccc6c5CN(C5CCC(=O)NC5=O)C6=O)c4c3)cc2[nH]1 (some centres unmarked)    ≥ 75%
Cc1nn(CCCCCCCCNc2cccc3c2C(=O)N(C2CCC(=O)NC2=O)C3=O)c2cc(C(=O)Nc3cc4[nH]c([C@@H]5CCCN5C)cc4cn3)ccc12 (some centres unmarked)    50 to 75%
Cc1nn(CCCCCN2CCN(c3cc4c(cc3F)C(=O)N(C3CCC(=O)NC3=O)C4=O)CC2)c2cc(C(=O)Nc3cc4[nH]c([C@H]5CCCN5C)cc4cn3)ccc12 (some centres unmarked)    ≥ 75%

Each molecule below has a recorded value; state its inhibition at 1 µM.
1. Cc1nn(CCCCCCCC#Cc2cccc3c2CN(C2CCC(=O)NC2=O)C3=O)c2cc(C(=O)Nc3cc4[nH]c([C@H]5CC6(CC6)CN5C)cc4cn3)ccc12 (stereo in doubt)
2. Cc1nn(C2CCN(CC3CCN(c4ccc5c(c4)C(=O)N(C4CCC(=O)NC4=O)C5=O)CC3)CC2)c2cc(C(=O)Nc3cc4[nH]c([C@H]5CCCN5C)cc4cn3)ccc12 (some centres unmarked)

RESULT:
≥ 75%
≥ 75%

---

assayedTarget: MLLT1 (Homo sapiens, UniProt Q03111)
Construct: endogenous in cells; host or cells: MV4-11 (ATCC CRL-9591)
procedureText: MLLT1 degradation assay (JESS automated chemiluminescent detection) in MV4-11 cells
Assay type: cell-based
settings: 1 µM, 24h, with respect to DMSO control
Give measured inhibition at 1 µM for each item. Keep answers brief.

Solved entries:
Cc1c([C@H]2CCCN2C)[nH]c2cc(NC(=O)c3ccc4c(C)nn(CCCCCCCC#Cc5cccc6c5CN(C5CCC(=O)NC5=O)C6=O)c4c3)ncc12 (stereo partly drawn)    ≥ 75%
Cc1nn(CCCCCCCCC#Cc2cccc3c2CN(C2CCC(=O)NC2=O)C3=O)c2cc(C(=O)Nc3cc4[nH]c([C@H]5CCCN5C)cc4cn3)ccc12 (stereo partly drawn)    ≥ 75%
Cc1nn(CCCCN2CCN(c3ccc4c(c3)C(=O)N(C3CCC(=O)NC3=O)C4=O)CC2)c2cc(C(=O)Nc3cc4[nH]c([C@@H]5CCCN5C)cc4cn3)ccc12 (stereo partly drawn)    ≥ 75%
Cc1nn(CCCCCCCC#Cc2cccc(C3CCC(=O)NC3=O)c2F)c2cc(C(=O)Nc3cc4[nH]c([C@H]5CCCN5C)cc4cn3)ccc12 (stereo partly drawn)    ≥ 75%
Cc1nn(CCCCCCCCNc2ccc3c(c2)C(=O)N(C2CCC(=O)NC2=O)C3=O)c2cc(C(=O)Nc3cc4[nH]c([C@@H]5CCCN5C)cc4cn3)ccc12 (stereo partly drawn)    ≥ 75%

QUERY: What value of measured inhibition at 1 µM is listed for Cc1nn(C2CCN(CC3CCN(c4cccc5c4C(=O)N(C4CCC(=O)NC4=O)C5=O)CC3)CC2)c2cc(C(=O)Nc3cc4[nH]c([C@H]5CCCN5C)cc4cn3)ccc12 (stereo partly drawn) ?
RESULT: ≥ 75%

---

assayedTarget: MLLT1 (Homo sapiens)
Construct: endogenous in cells; host or cells: MV4-11 (ATCC CRL-9591)
procedureText: MLLT1 degradation assay (JESS automated chemiluminescent detection) in MV4-11 cells
Type: cell-based
settings: 0.01 µM, 24h, with respect to DMSO control
measureName: inhibition at 0.01 µM

Worked set:
Cc1nn(CCCCCCCC#Cc2cccc(C3CCC(=O)NC3=O)n2)c2cc(C(=O)Nc3cc4[nH]c([C@H]5CCCN5C)cc4cn3)ccc12 (stereo partly shown) [Example 62]    50 to 75%
Cc1nn(CCCCCCCC#Cc2cccc(N3CCC(=O)NC3=O)c2F)c2cc(C(=O)Nc3cc4[nH]c([C@H]5CCCN5C)cc4cn3)ccc12 [Example 63]    < 25%
Cc1nn(CCCOCC#Cc2cccc3c2CN(C2CCC(=O)NC2=O)C3=O)c2cc(C(=O)Nc3cc4[nH]c([C@H]5CCCN5C)cc4cn3)ccc12 (stereo partly shown) [Example 31]    25 to 50%

QUERY: Give inhibition at 0.01 µM (MLLT1 (Homo sapiens)) of the following compound: Cc1nn(CCCCCCCCNc2ccc3c(c2)C(=O)N(C2CCC(=O)NC2=O)C3=O)c2cc(C(=O)Nc3cc4[nH]c([C@@H]5CCCN5C)cc4cn3)ccc12 (stereo partly shown) [Example 15]
RESULT: < 25%

---

assayedTarget: MLLT1 (Homo sapiens, UniProt Q03111)
Construct: endogenous in cells; host or cells: MV4-11 (ATCC CRL-9591)
procedureText: MLLT1 degradation assay (JESS automated chemiluminescent detection) in MV4-11 cells
Type: cell-based
settings: 1 µM, 24h, with respect to DMSO control
measureName: inhibition at 1 µM

Cc1nn(C2CCN(CC3CCN(c4cc5c(cc4F)C(=O)N(C4CCC(=O)NC4=O)C5=O)CC3)CC2)c2cc(C(=O)Nc3cc4[nH]c([C@H]5CCCN5C)cc4cn3)ccc12 (some centres unmarked) [Example 69]    ≥ 75%
Cc1nn(CCCCCCCC#Cc2cccc(C(=O)N[C@H]3CCC(=O)NC3=O)n2)c2cc(C(=O)Nc3cc4[nH]c([C@H]5CCCN5C)cc4cn3)ccc12 [Example 42]    ≥ 75%
Cc1nn(CCCCCC#Cc2cccc(C(=O)NC3CCC(=O)NC3=O)c2F)c2cc(C(=O)Nc3cc4[nH]c([C@H]5CCCN5C)cc4cn3)ccc12 (some centres unmarked) [Example 34]    ≥ 75%

Please give inhibition at 1 µM for each item listed below.
1. Cc1nn(CCCCCOCC#Cc2cccc3c2CN(C2CCC(=O)NC2=O)C3=O)c2cc(C(=O)Nc3cc4[nH]c([C@H]5CCCN5C)cc4cn3)ccc12 (some centres unmarked) [Example 49]
2. Cc1nn(CCCCCCNc2cccc3c2C(=O)N(C2CCC(=O)NC2=O)C3=O)c2cc(C(=O)Nc3cc4[nH]c([C@H]5CCCN5C)cc4cn3)ccc12 (some centres unmarked) [Example 22]
3. Cc1nn(CCCCCC#Cc2cccc3c2CN(C2CCC(=O)NC2=O)C3=O)c2cc(C(=O)Nc3cc4[nH]c([C@H]5CCCN5C)cc4cn3)ccc12 (some centres unmarked) [Example 30]
4. CN1CCC[C@@H]1c1cc2cnc(NC(=O)c3ccc4c(cnn4CCCCCCCCNc4cccc5c4C(=O)N(C4CCC(=O)NC4=O)C5=O)c3)cc2[nH]1 (some centres unmarked) [Example 36]
5. Cc1nn(CCCCCCCC#Cc2cccc3c2CN(C2CCC(=O)NC2=O)C3=O)c2cc(C(=O)Nc3cc4[nH]c([C@H]5CCCN5C)cc4cn3)ccc12 (mixture of isomers) [Example 1]

RESULT:
1: ≥ 75%; 2: ≥ 75%; 3: ≥ 75%; 4: ≥ 75%; 5: ≥ 75%

Batch request: inhibition at 1 µM per item, same order as input.
1. Cc1nn(CCOCCNc2cccc3c2C(=O)N(C2CCC(=O)NC2=O)C3=O)c2cc(C(=O)Nc3cc4[nH]c([C@H]5CCCN5C)cc4cn3)ccc12 (some centres unmarked) [Example 26]
2. Cc1c(OCCCCCCCCn2nc(C)c3ccc(C(=O)Nc4cc5[nH]c([C@H]6CCCN6C)cc5cn4)cc32)cccc1N1CCC(=O)NC1=O [Example 9]
3. Cc1nn(CCCC#Cc2cccc3c2CN(C2CCC(=O)NC2=O)C3=O)c2cc(C(=O)Nc3cc4[nH]c([C@H]5CCCN5C)cc4cn3)ccc12 (some centres unmarked) [Example 32]
4. Cc1nn(CCCCCCCCNc2cccc3c2C(=O)N(C2CCC(=O)NC2=O)C3=O)c2cc(C(=O)Nc3cc4[nH]c([C@H]5CCCN5C)c(Cl)c4cn3)ccc12 (some centres unmarked) [Example 18]
5. Cc1nn(CCCCCN2CCN(c3cccc4c3C(=O)N(C3CCC(=O)NC3=O)C4=O)CC2)c2cc(C(=O)Nc3cc4[nH]c([C@H]5CCCN5C)cc4cn3)ccc12 (some centres unmarked) [Example 47]
6. Cc1nn(CCOCCN2CCN(c3cc4c(cc3F)C(=O)N(C3CCC(=O)NC3=O)C4=O)CC2)c2cc(C(=O)Nc3cc4[nH]c([C@H]5CCCN5C)cc4cn3)ccc12 (some centres unmarked) [Example 24]
7. CN1CCC[C@@H]1c1cc2cnc(NC(=O)c3ccc4c(cnn4CCCCCCCC#Cc4cccc5c4CN(C4CCC(=O)NC4=O)C5=O)c3)cc2[nH]1 (some centres unmarked) [Example 38]

RESULT:
1: ≥ 75%; 2: ≥ 75%; 3: 50 to 75%; 4: ≥ 75%; 5: 50 to 75%; 6: ≥ 75%; 7: 50 to 75%

Batch: inhibition at 1 µM for all items listed.
1. Cc1nn(CCCCCCCC#Cc2cccc3c2CN(C2CCC(=O)NC2=O)C3=O)c2cc(C(=O)Nc3cc4[nH]c([C@H]5CCCN5C)c(C#N)c4cn3)ccc12 (some centres unmarked) [Example 66]
2. Cc1nn(CCOCCCCC#Cc2cccc3c2CN(C2CCC(=O)NC2=O)C3=O)c2cc(C(=O)Nc3cc4[nH]c([C@H]5CCCN5C)cc4cn3)ccc12 (some centres unmarked) [Example 50]

RESULT:
1: ≥ 75%; 2: ≥ 75%
